Tested on: A549 cells
Test: MTS cytotoxicity assay
Format: cell-based, human
Details: average of two replicates
readout: CC50 (µM)
Write it as a number; the unit µM goes unstated.

For record Cc1cc(N)c2cc(NC(=O)/C=C/c3ccccc3Cl)ccc2n1 [Compound 2] the listed CC50 is 10
